Quick reference: concentration at 24 h of the listed items.
protocol-notes: Pharmacokinetic study in chimps after oral and intravenous co-dosing: unmetabolized compound in urine
Assay type: in vivo
test-parameters: both sexes, chimpanzee; PO, 50 mg of each compound co-administered; average of chimps; urine collected 24 hours post-dose; read-out: Unmetabolized Compound Found in Urine

- compound: "COC[C@@H](NC(C)=O)C(=O)NCc1ccccc1 [Lacosamide, reference compound]"
  concentration at 24 h, ng/mL: 2720
- compound: "[2H]C([2H])([2H])OC[C@@H](NC(=O)C([2H])([2H])[2H])C(=O)NCc1ccccc1 [Compound 120]"
  concentration at 24 h, ng/mL: 3200

====

Quick reference: Cmax of the listed items.
protocol-notes: Pharmacokinetic study in chimps after oral and intravenous co-dosing: plasma levels by LC-MS/MS
Type: in vivo
test-parameters: plasma, po, 50 mg, plasma; Chimp 3; PO gavage single 50 mg dose of each compound, co-administered 1:1

- molecule: "COC[C@@H](NC(C)=O)C(=O)NCc1ccccc1 [Lacosamide, reference compound]"
  Cmax (ng/mL): 1370
- molecule: "[2H]C([2H])([2H])OC[C@@H](NC(=O)C([2H])([2H])[2H])C(=O)NCc1ccccc1"
  Cmax (ng/mL): 1540
